system: Wolbachia pipientis; test: Anti-Wolbachia Cell-Based Screen; type: functional; parameters: scale not given: in the data most compounds retested in dose-response had high values; conditions: 5 µM
About 13,000 (27%) of roughly 48,000 compounds showed an effect of 50% or more. The list shows a part of the results.
# Percent Effect per record follows
Field format: number, assumed %, no unit text.

Reference set (5 entries):
- MOLECULE: "CCS(=O)(=O)N1CCC(c2nnc(C3CC3)o2)CC1"
  Percent Effect, %: -10.63
- MOLECULE: "Cc1ccc(C(C)NC(=O)N2CCN(S(C)(=O)=O)CC2)o1 (stereo unspecified)"
  Percent Effect, %: 16.96
- MOLECULE: "CCCS(=O)(=O)N1CCC(NC(=O)c2cc(C)c(CC)s2)CC1"
  Percent Effect, %: 4.17
- MOLECULE: "CN(C)CC1COCCN1C(=O)c1ccccc1C(=O)c1ccccc1.O=CO (stereo unspecified)"
  Percent Effect, %: -10.61
- MOLECULE: "Cc1cc(-c2ccc(=O)n(C3CCN(S(=O)(=O)N(C)C)CC3)n2)c(C)o1"
  Percent Effect, %: 95.62

Query :: Quick one: Percent Effect of `CCCS(=O)(=O)N1CCC(c2ccc(OC)cc2)CC1` ?
Result :: -3.773

Query :: Quick one: Percent Effect of `Cc1cc(-c2ccc(=O)n(C3CCN(S(C)(=O)=O)CC3)n2)c(C)o1` ?
Result :: 123.5

Query :: Quick one: Percent Effect of `Cc1cc(-c2n[nH]c3c2CN(S(=O)(=O)c2ccsc2)CC3)c(C)o1` ?
Result :: 6.081

Query :: Quick one: Percent Effect of `CCS(=O)(=O)N1CCC(n2nc(-c3cc(C)oc3C)ccc2=O)CC1` ?
Result :: 128.2

Query :: Quick one: Percent Effect of CN(C)S(=O)(=O)N1CCC(C(O)c2ccc(Cl)cc2)CC1 (stereo unspecified) ?
Result :: -7.887

Query :: Quick one: Percent Effect of `CCCS(=O)(=O)N1CCC(n2nc(-c3cc(C)oc3C)ccc2=O)CC1` ?
Result :: 123.5
